assay_text: Protective index, ratio of TD50 for neurotoxicity in ip injected albino mouse to ED50 for anticonvulsant activity in ip injected albino mouse assessed as protection against 50 mA current-induced seizure
Assay type: toxicity, organism-based
condition_context: in vivo, read-out: PI
This listing pairs compounds with measured selectivity ratio.
Form field (numeric): enter value without unit.

COc1ccc(N2C(=S)N=C(c3ccccc3)CC2c2ccccc2)cc1 (configuration not stated) = 31.8

Exercise: Quick one: selectivity ratio for S=C1N=C(c2ccccc2)CC(c2ccccc2)N1c1ccc(Cl)cc1 (configuration not stated) ?
Solution: 21.6

====

Test system: Mus musculus
assay_text: Anticonvulsant activity in ip injected albino mouse assessed as protection against 50 mA current-induced seizure by maximal electroshock seizure test
Assay type: functional
experimental_endpoint: ED50 (mg/kg)
The reply should contain only the number, in mg/kg.

Exercise: Quick one: ED50 for Nc1nc(-c2ccccc2)nnc1C(=O)N1CCCC1c1noc2cc(Br)ccc12 (stereo unspecified) ?
Solution: 12.2

Exercise: Quick one: ED50 for Nc1ccc(Cl)cc1-c1n[nH]c(=O)n(-c2ccc(O)cc2)c1=O ?
Solution: 51.1

====

This listing pairs compounds with measured selectivity ratio.
assay_text: Protective index, ratio of TD50 for neurotoxicity in mouse to ED50 for anticonvulsant activity in mouse assessed as protection against pentylenetetrazole-induced seizure
Type: toxicity
condition_context: in vivo, read-out: PI
Form field (numeric): enter value without unit.

Cc1ccc(NC(=S)N2C(=S)N=C(c3ccccc3)CC2c2ccc(O)cc2)cc1 (configuration not stated) = 1.9

Please look at the following compound next.
Exercise: Quick one: selectivity ratio for CN(C)c1ccc(C2CC(c3ccccc3)=NC(=S)N2C(=S)Nc2ccccc2)cc1 (configuration not stated) ?
Solution: 1.7

====

assay_text: Protective index, ratio of TD50 for neurotoxicity in mouse to ED50 for anticonvulsant activity in mouse assessed as protection against current-induced seizure
Assay type: toxicity
condition_context: in vivo, read-out: PI
This listing pairs compounds with measured selectivity ratio.
Form field (numeric): enter value without unit.

Answered examples (2):
Clc1ccc(Oc2cccc3nncn23)cc1 = 4.8
CN(C)c1ccc(C2CC(c3ccccc3)=NC(=S)N2C(=S)Nc2ccccc2)cc1 (centres undefined) = 18

Exercise: Quick one: selectivity ratio for Cc1ccc(NC(=S)N2C(=S)N=C(c3ccccc3)CC2c2ccc(O)cc2)cc1 (centres undefined) ?
Solution: 34.2

====

assay_text: Neurotoxicity in ip injected albino mouse
Assay type: toxicity, organism-based
condition_context: in vivo
Please assign NOT MET whenever TD50 is at or above 400 mg/kg, and MET whenever it is below.

CN(C)Nc1ccc(/C=N/Nc2nnc(-c3ccccc3)nc2Cc2ccc(Cl)cc2)cc1 = MET

Exercise: Strictly below 400 mg/kg: is that where TD50 of Nc1ccc(Cl)cc1-c1n[nH]c(=O)n(-c2ccc(O)cc2)c1=O sits?
Solution: NOT MET

Exercise: Strictly below 400 mg/kg: is that where TD50 of COc1ccc(N2C(=S)N=C(c3ccccc3)CC2c2ccccc2)cc1 (stereo unspecified) sits?
Solution: NOT MET

Exercise: Strictly below 400 mg/kg: is that where TD50 of CN(C)Nc1ccc(/C=N/Nc2nnc(-c3ccccc3)nc2Cc2cccc(Cl)c2)cc1 sits?
Solution: NOT MET

Exercise: Strictly below 400 mg/kg: is that where TD50 of S=C1N=C(c2ccccc2)CC(c2ccccc2)N1c1ccc(Cl)cc1 (stereo unspecified) sits?
Solution: NOT MET

Exercise: Strictly below 400 mg/kg: is that where TD50 of NC(=O)N1c2ccccc2C=Cc2ccccc21 [CARBAMAZEPINE] sits?
Solution: MET

Exercise: Strictly below 400 mg/kg: is that where TD50 of CCCC(CCC)C(=O)[O-].[Na+] [VALPROATE SODIUM] sits?
Solution: MET

Exercise: Strictly below 400 mg/kg: is that where TD50 of Nc1nc(-c2ccccc2)nnc1C(=O)N1CCCC1c1noc2cc(Cl)ccc12 (stereo unspecified) sits?
Solution: MET

Source of measurements: ChEMBL document CHEMBL4725277
